Test system: Breast cancer
run.description: MTT assay, tumor cells
Type: cell-based, human
Set-up: concentration or dose not given beside the values
reported.conditions: 48 hours, mean ± SD
Attribute: tumor growth inhibition rate, MTT Assay
Could you give me the number in %? Just the number is fine.

>  <substance>
Ile-Val-Arg-Arg-Ala-Asp-Arg-Ala-Ala-Val-Pro-Gly-Gly-Gly-Gly-Pro-(D-Pyr)-(D-Cys)-Bip-Arg-Gly-Glu-Gly-Gly-Gly-Gly-Arg-Gly-Asp [Polypeptide II]

>  <tumor growth inhibition rate, MTT Assay, %>
89.43

$$$$
>  <substance>
Arg-Gly-Asp-Gly-Gly-Gly-Gly-Pro-(D-Pyr)-(D-Cys)-Bip-Arg-Gly-Glu-Gly-Gly-Gly-Gly-Ile-Val-Arg-Arg-Ala-Asp-Arg-Ala-Ala-Val-Pro [Polypeptide III]

>  <tumor growth inhibition rate, MTT Assay, %>
90.11

$$$$

Could you now consider this next substance?
Considering Pro-(D-Pyr)-(D-Cys)-Bip-Arg-Gly-Glu-Gly-Gly-Gly-Gly-Arg-Gly-Asp-Gly-Gly-Gly-Gly-Ile-Val-Arg-Arg-Ala-Asp-Arg-Ala-Ala-Val-Pro [Polypeptide VI] , its tumor growth inhibition rate, MTT Assay with Breast cancer was recorded as 81.92

Reference source for all entries: patent US20190031717A1
